Exercise: state measured percent inhibition of viability for each of the compounds provided.
test system: normal NK cells expanded with K562-aAPC; assay: percent inhibition of viability; higher = more inhibition; conditions: 72 h; IL-2 2.5 ng/mL; 10 nM
Give bare numbers, in %.

Previously resolved entries follow.
Exam item: Please report the recorded percent inhibition of viability for O=C(CCCCCCC(=O)Nc1ccccc1)NO [Vorinostat] (max concentration tested 10000 nM) .
Marked response: -2.42

Exam item: Please report the recorded percent inhibition of viability for O=C(CCCCCCC(=O)Nc1ccc([C@H]2O[C@@H](CSc3nc(-c4ccccc4)c(-c4ccccc4)o3)C[C@@H](c3ccc(CO)cc3)O2)cc1)NO [Tubacin] (max concentration tested 10000 nM) .
Marked response: 4.86

Exam item: Please report the recorded percent inhibition of viability for O=C1NC(=O)[C@@H](c2cn3c4c(cccc24)CCC3)[C@@H]1c1c[nH]c2ccccc12 [Tivantinib] (max concentration tested 1000 nM) .
Marked response: 5.6

Exam item: Please report the recorded percent inhibition of viability for CC/C(=C(\c1ccc(O)cc1)c1ccc(OCCN(C)C)cc1)c1ccccc1 [4-hydroxytamoxifen] (max concentration tested 10000 nM) .
Marked response: -3.75

Please look at the items below and tell me percent inhibition of viability for each one, in order.
1. CCN(CC)CCOc1ccc(C(=C(Cl)c2ccccc2)c2ccccc2)cc1 [Clomifene] (max concentration tested 10000 nM)
2. COc1cc(CCc2cc(NC(=O)c3ccc(N4CC(C)NC(C)C4)cc3)n[nH]2)cc(OC)c1 (stereo unspecified) [AZD4547] (max concentration tested 1000 nM)

Marked response:
[-4.95, -0.59]
